- tested_on: Frizzled-1 (Homo sapiens)
- procedure_text: Induction of internalization of Frizzled1-GFP (unknown origin) expressed in human U2OS cells at 12.5 uM after 6 hrs by confocal microscopy
- Format: cell-based
Calls of active or inactive are those of the source. No cut-off for these calls is given here.
Parameter call: string, one of Y (active), N (inactive)

Challenge: I would be grateful if you could indicate the recorded call for O=C(Nc1ccc(NS(=O)(=O)c2ccc(Cl)cc2)cc1Cl)c1cc(Cl)ccc1O .
Response given: N

Challenge: I would be grateful if you could indicate the recorded call for O=C(Nc1ccc([N+](=O)[O-])cc1Br)c1ccccc1O .
Response given: Y

Challenge: I would be grateful if you could indicate the recorded call for O=C(Nc1ccc(Oc2ccc(Cl)cc2)c(Cl)c1)c1cc(I)cc(I)c1O .
Response given: N

Challenge: I would be grateful if you could indicate the recorded call for O=C(Nc1ccc(Br)cc1)c1cc(Br)cc(Br)c1O .
Response given: N

Challenge: I would be grateful if you could indicate the recorded call for O=C(Nc1ccc([N+](=O)[O-])cc1Cl)c1cc(Br)ccc1O .
Response given: Y

Challenge: I would be grateful if you could indicate the recorded call for O=C(Nc1cc(Cl)cc(Cl)c1O)c1c(O)c(Cl)cc(Cl)c1Cl .
Response given: N

Challenge: I would be grateful if you could indicate the recorded call for O=C(Nc1ccc([N+](=O)[O-])cc1Cl)c1cc(Cl)ccc1O [NICLOSAMIDE] .
Response given: Y

Challenge: I would be grateful if you could indicate the recorded call for O=C(Nc1ccc([N+](=O)[O-])cc1Cl)c1cccc(Cl)c1 .
Response given: N

Challenge: I would be grateful if you could indicate the recorded call for COc1ccc(Cl)cc1C(=O)Nc1ccc([N+](=O)[O-])cc1Cl .
Response given: N

Challenge: I would be grateful if you could indicate the recorded call for COc1cc([N+](=O)[O-])ccc1NC(=O)c1cc(Cl)ccc1O .
Response given: Y

Challenge: I would be grateful if you could indicate the recorded call for O=C(Nc1ccccc1[N+](=O)[O-])c1cc(Cl)ccc1O .
Response given: N

Challenge: I would be grateful if you could indicate the recorded call for [N-]=[N+]=NCCOCCOCCOc1cc([N+](=O)[O-])ccc1NC(=O)c1cc(Cl)ccc1O .
Response given: Y

Challenge: I would be grateful if you could indicate the recorded call for [N-]=[N+]=Nc1ccc(NC(=O)c2cc(Cl)ccc2O)c(Cl)c1 .
Response given: Y

Challenge: I would be grateful if you could indicate the recorded call for O=C(Nc1ccc([N+](=O)[O-])cc1)c1cc(Cl)ccc1O .
Response given: Y

Challenge: I would be grateful if you could indicate the recorded call for Nc1ccc(NC(=O)c2cc(Cl)ccc2O)c(Cl)c1 .
Response given: N

Challenge: I would be grateful if you could indicate the recorded call for O=C(Nc1cccc([N+](=O)[O-])c1)c1cc(Cl)ccc1O .
Response given: N

Challenge: I would be grateful if you could indicate the recorded call for O=C(Nc1ccc([N+](=O)[O-])cc1Cl)c1ccccc1O .
Response given: Y

Challenge: I would be grateful if you could indicate the recorded call for O=C(Nc1ccc([N+](=O)[O-])cc1)c1cc(Br)ccc1O .
Response given: Y

Challenge: I would be grateful if you could indicate the recorded call for Cc1cc(C(C#N)c2ccc(Cl)cc2)c(Cl)cc1NC(=O)c1cc(I)cc(I)c1O (centres undefined) .
Response given: N
